Source: paper PMC12350126

# procedureSummary: PK analysis after intravenous administration in SD rats
# Type: in vivo, rat
# measurementSetup: male, rat, plasma, 5 mg/kg
observationType: Cmax

compound="CNC(=O)CC1C(=O)NCCN1Cc1ccc(-c2ccccc2-c2cccc3c2CN(C)C3=O)o1 (stereo not shown)" reportedmeasurement="1110 ng/mL"

* * *

# procedureSummary: PK analysis after intravenous administration in SD rats
# Type: in vivo, rat
# measurementSetup: male, rat, plasma, 10 mg/kg
observationType: AUC(0-t) (ng·h/mL)

molecule="CNC(=O)CC1C(=O)NCCN1Cc1ccc(-c2ccccc2-c2cccc3c2CN(C)C3=O)o1 (stereo not shown) [NCD]" observationtype=AUC(0-t) displayunit=ng·h/mL reportedmeasurement=1730
